- procedure-text: Half life in human at 0.2 g, po bid
- Format: ADME, organism-based
- study-conditions: in vivo
endpoint-name: half-life (h)
# number only, unit h dropped from output

Lookup: I am curious: what half-life value has been reported for NC1CCN(c2c(F)cc3c(=O)c(C(=O)O)cn(C4CC4)c3c2Cl)C1 (stereo unspecified) ?
Found: 6

* * *

Recorded MIC90 by entry
- Tested on: Bacteroides fragilis
- procedure-text: Antibacterial activity against Bacteroides fragilis by agar diffusion method
- Assay type: functional
# number only, unit µg/mL dropped from output

| compound | MIC90 [µg/mL] |
| --- | --- |
| Cc1c(F)c(N2CCNC(C)C2)cc2c1c(=O)c(C(=O)O)cn2C1CC1 (stereo not given) [GREPAFLOXACIN] | 8 |
| C[C@@H]1CN(c2c(F)c(N)c3c(=O)c(C(=O)O)cn(C4CC4)c3c2F)C[C@H](C)N1 [SPARFLOXACIN] | 4 |
| COc1c(N2CCNC(C)C2)c(F)cc2c(=O)c(C(=O)O)cn(C3CC3)c12 (stereo not given) [GATIFLOXACIN] | 1 |
| CC1COc2c(N3CCN(C)CC3)c(F)cc3c(=O)c(C(=O)O)cn1c23 (stereo not given) [OFLOXACIN] | 16 |
| O=C(O)c1cn(C2CC2)c2cc(N3CCNCC3)c(F)cc2c1=O [CIPROFLOXACIN] | 16 |

Lookup: Param readout= MIC90; system= Bacteroides fragilis; entry= C[C@H]1NCc2cc(-c3ccc4c(=O)c(C(=O)O)cn(C5CC5)c4c3OC(F)F)ccc21 [GARENOXACIN] ; returns value.
Found: 1

Lookup: Moving on to the next compound: NC1CCN(c2c(F)cc3c(=O)c(C(=O)O)cn(C4CC4)c3c2Cl)C1 (stereo not given) [CLINAFLOXACIN]
Found: 0.25

* * *

- procedure-text: Protein binding in human at 0.6 g, po
- Assay type: ADME
- study-conditions: in vivo, read-out: PB (converted)
endpoint-name: fraction unbound
Lab note: record just the number, no unit beside it.

Lookup: I am curious: what fraction unbound value has been reported for CCn1cc(C(=O)O)c(=O)c2cc(F)c(N3CCNCC3)nc21 [ENOXACIN] ?
Found: 0.4

* * *

- procedure-text: AUC in human at 0.4 g, po
- Assay type: ADME
- study-conditions: in vivo
endpoint-name: AUC
Lab note: write values as number then unit, every time.

| compound | AUC |
| --- | --- |
| C[C@@H]1CN(c2c(F)c(N)c3c(=O)c(C(=O)O)cn(C4CC4)c3c2F)C[C@H](C)N1 | 20000 ng·h/mL |
| Cc1c(F)c(N2CCNC(C)C2)cc2c1c(=O)c(C(=O)O)cn2C1CC1 (stereo not given) | 14000 ng·h/mL |
| C[C@H]1NCc2cc(-c3ccc4c(=O)c(C(=O)O)cn(C5CC5)c4c3OC(F)F)ccc21 | 59000 ng·h/mL |

Lookup: I am curious: what AUC value has been reported for CCn1cc(C(=O)O)c(=O)c2cc(F)c(N3CCNC(C)C3)c(F)c21 (stereo not given) ?
Found: 26000 ng·h/mL

Lookup: Moving on to the next compound: COc1c(N2CCNC(C)C2)c(F)cc2c(=O)c(C(=O)O)cn(C3CC3)c12 (stereo not given)
Found: 33000 ng·h/mL

* * *

- procedure-text: Cmax in human at 0.6 g, po
- Assay type: ADME
- Parameters: dose 0.6 g, route oral
- study-conditions: in vivo
endpoint-name: Cmax
Lab note: write values as number then unit, every time.

Lookup: I am curious: what Cmax value has been reported for "CCn1cc(C(=O)O)c(=O)c2cc(F)c(N3CCNCC3)nc21" ?
Found: 3700 ng/mL

* * *

- procedure-text: Half life in human at 0.4 g, po bid
- Type: ADME, organism-based
- study-conditions: in vivo
endpoint-name: half-life

Lookup: I am curious: what half-life value has been reported for "CCn1cc(C(=O)O)c(=O)c2cc(F)c(N3CCNCC3)cc21" ?
Found: 3 h

Lookup: Moving on to the next molecule: CC1COc2c(N3CCN(C)CC3)c(F)cc3c(=O)c(C(=O)O)cn1c23 (configuration not stated)
Found: 6 h

* * *

- procedure-text: AUC in human at 0.2 g, po bid
- Format: ADME, organism-based
- study-conditions: in vivo
endpoint-name: AUC (ng·h/mL)
# number only, unit ng·h/mL dropped from output

Lookup: I am curious: what AUC value has been reported for NC1CCN(c2c(F)cc3c(=O)c(C(=O)O)cn(C4CC4)c3c2Cl)C1 (stereo unspecified) ?
Found: 18000

* * *

- procedure-text: Toxicity in human assessed as arthralgia effect
Recorded Activity by entry

Examples from the recorded data:
| molecule | endpoint-name | recorded-value |
| --- | --- | --- |
| Cc1c(F)c(N2CCNC(C)C2)cc2c1c(=O)c(C(=O)O)cn2C1CC1 (stereo not drawn) | Activity | 0.5 to 2% |
| C[C@H]1COc2c(N3CCN(C)CC3)c(F)cc3c(=O)c(C(=O)O)cn1c23.C[C@H]1COc2c(N3CCN(C)CC3)c(F)cc3c(=O)c(C(=O)O)cn1c23.O | Activity | 0.5 to 2% |

Query molecule follows.
Lookup: I am curious: what Activity value has been reported for "C[C@@H]1CN(c2c(F)c(N)c3c(=O)c(C(=O)O)cn(C4CC4)c3c2F)C[C@H](C)N1" ?
Found: 0.5 to 2%

* * *

- procedure-text: Cmax in human at 0.2 g, po bid
- Format: ADME, organism-based
- Set-up: dose 0.2 g, route oral
- study-conditions: in vivo
endpoint-name: Cmax (ng/mL)
# number only, unit ng/mL dropped from output

Lookup: I am curious: what Cmax value has been reported for NC1CCN(c2c(F)cc3c(=O)c(C(=O)O)cn(C4CC4)c3c2Cl)C1 (stereo unspecified) [CLINAFLOXACIN] ?
Found: 1600

* * *

Recorded half-life by entry
- procedure-text: Half life in human at 0.4 g, po
- Assay type: ADME
- study-conditions: in vivo
# number only, unit h dropped from output

Lookup: I am curious: what half-life value has been reported for "C[C@@H]1CN(c2c(F)c(N)c3c(=O)c(C(=O)O)cn(C4CC4)c3c2F)C[C@H](C)N1" ?
Found: 18

* * *

- procedure-text: Half life in human at 0.6 g, po
- Assay type: ADME
- study-conditions: in vivo
endpoint-name: half-life (h)
# number only, unit h dropped from output

Lookup: I am curious: what half-life value has been reported for "CCn1cc(C(=O)O)c(=O)c2cc(F)c(N3CCNCC3)nc21" ?
Found: 2

* * *

Recorded MIC90 by entry
- System: Enterococcus
- procedure-text: Antibacterial activity against Enterococcus by agar diffusion method
- Type: functional
# number only, unit µg/mL dropped from output

Examples from the recorded data:
| compound | assay-system | recorded-value |
| --- | --- | --- |
| CCn1cc(C(=O)O)c(=O)c2cc(F)c(N3CCNCC3)cc21 [NORFLOXACIN] | Enterococcus | 4 |
| CCn1cc(C(=O)O)c(=O)c2cc(F)c(N3CCNC(C)C3)c(F)c21 (centres undefined) [LOMEFLOXACIN] | Enterococcus | 4 |
| N[C@@H]1[C@H]2CN(c3nc4c(cc3F)c(=O)c(C(=O)O)cn4-c3ccc(F)cc3F)C[C@@H]12 [TROVAFLOXACIN] | Enterococcus | 1 |
| CCn1cc(C(=O)O)c(=O)c2cc(F)c(N3CCNCC3)nc21 [ENOXACIN] | Enterococcus | 8 |
| CO/N=C1\CN(c2nc3c(cc2F)c(=O)c(C(=O)O)cn3C2CC2)CC1CN (centres undefined) [GEMIFLOXACIN] | Enterococcus | 4 |

Lookup: I am curious: what MIC90 value has been reported for Cc1c(F)c(N2CCNC(C)C2)cc2c1c(=O)c(C(=O)O)cn2C1CC1 (centres undefined) [GREPAFLOXACIN] ?
Found: 4

Lookup: Moving on to the next compound: COc1c(N2C[C@@H]3CCCN[C@@H]3C2)c(F)cc2c(=O)c(C(=O)O)cn(C3CC3)c12 [MOXIFLOXACIN]
Found: 2

Lookup: Moving on to the next compound: O=C(O)c1cn(C2CC2)c2cc(N3CCNCC3)c(F)cc2c1=O [CIPROFLOXACIN]
Found: 4

Lookup: Moving on to the next compound: C[C@@H]1CN(c2c(F)c(N)c3c(=O)c(C(=O)O)cn(C4CC4)c3c2F)C[C@H](C)N1 [SPARFLOXACIN]
Found: 2

Lookup: Moving on to the next compound: NC1CCN(c2c(F)cc3c(=O)c(C(=O)O)cn(C4CC4)c3c2Cl)C1 (centres undefined) [CLINAFLOXACIN]
Found: 0.25

Lookup: Moving on to the next compound: COc1c(N2CCNC(C)C2)c(F)cc2c(=O)c(C(=O)O)cn(C3CC3)c12 (centres undefined) [GATIFLOXACIN]
Found: 1

Lookup: Moving on to the next compound: CC1COc2c(N3CCN(C)CC3)c(F)cc3c(=O)c(C(=O)O)cn1c23 (centres undefined) [OFLOXACIN]
Found: 2

Lookup: Moving on to the next compound: C[C@H]1NCc2cc(-c3ccc4c(=O)c(C(=O)O)cn(C5CC5)c4c3OC(F)F)ccc21 [GARENOXACIN]
Found: 0.5
